Data credit: patent US9505781B2

- SYSTEM UNDER TEST: menin-MLL interaction (Homo sapiens)
- ASSAY SUMMARY: biochemical
QUANTITY NAME: IC50

Some entries whose results are on file:
MOLECULE	SYSTEM UNDER TEST	IC50
O=C(COCc1ccccc1)N1CCN(c2ncnc3sc(CC(F)(F)F)cc23)CC1	menin-MLL interaction (Homo sapiens)	500 to 2000 nM
O=C(Cc1ccc2cc[nH]c2c1)N1CCN(c2ncnc3sc(CC(F)(F)F)cc23)CC1	menin-MLL interaction (Homo sapiens)	100 to 500 nM
N#Cc1cc2cc(CN3CCC(Nc4ncnc5sc(CC(F)(F)F)cc45)CC3)c(O)cc2n1Cc1cn[nH]c1	menin-MLL interaction (Homo sapiens)	< 100 nM
FC(F)(F)Cc1cc2c(NCC3CCN(Cc4ccc(C(F)(F)F)cc4)CC3)ncnc2s1	menin-MLL interaction (Homo sapiens)	500 to 2000 nM
Cc1c(CN2CCC(Nc3ncnc4sc(CC(F)(F)F)cc34)CC2)ccc2c1cc(C#N)n2CC1CCC(=O)NC1 (stereo not drawn)	menin-MLL interaction (Homo sapiens)	< 100 nM

So what's the measured IC50 for this one? N#Cc1cc2cc(CN3CCC(Nc4ncnc5sc(CC(F)(F)F)cc45)CC3)ccc2n1Cc1nn[nH]n1
100 to 500 nM

Sample N#Cc1cc2c(C=O)c(CN3CCC(Nc4ncnc5sc(CC(F)(F)F)cc45)CC3)ccc2n1Cc1cn[nH]c1 — what was its IC50?
< 100 nM

Entry Cc1c(CN2CCC(Nc3ncnc4sc(CC(F)(F)F)cc34)CC2)ccc2c1cc(C#N)n2Cc1nccs1 has what IC50?
< 100 nM

Requested field: IC50. Item: CNS(=O)(=O)Nc1ccc(CC(=O)N2CCN(c3ncnc4sc(CC(F)(F)F)cc34)CC2)cc1
< 100 nM

Need IC50, item N#Cc1cc2cc(CN3CCC(Nc4ncnc5sc(CC(F)(F)F)cc45)CC3)ccc2n1CC(CO)OCC1CCCCC1 (stereo not drawn)
< 100 nM

Quick one: IC50 for COc1cc2c(cc1CN1CCC(Nc3ncnc4sc(CC(F)(F)F)cc34)CC1)cc(C#N)n2Cc1cn[nH]c1 ?
< 100 nM

Give the measured IC50 of N#Cc1cc2cc(CN3CCC(Nc4ncnc5sc(CC(F)(F)F)cc45)CC3)ccc2n1CC(=O)NC1CC1 .
< 100 nM

Which IC50 is reported for this molecule? CCn1c(C#N)cc2cc(CN3CCC(Nc4ncnc5sc(CC(F)(F)F)cc45)CC3)ccc21
< 100 nM

Would you kindly share the measured IC50 for Cc1c(CN2CCC(Nc3ncnc4sc(CC(F)(F)F)cc34)CC2)ccc2c1cc(C#N)n2CCN1CCS(=O)(=O)CC1 ?
< 100 nM

What value of measured IC50 is listed for FC(F)(F)Cc1cc2c(N[C@H]3CCN(Cc4ccccc4)C[C@@H]3OCc3ccccc3)ccnc2s1 ?
100 to 500 nM

---

- SYSTEM UNDER TEST: menin-MLL interaction (Homo sapiens, UniProt O00255)
- Sequence (O00255 whole entry): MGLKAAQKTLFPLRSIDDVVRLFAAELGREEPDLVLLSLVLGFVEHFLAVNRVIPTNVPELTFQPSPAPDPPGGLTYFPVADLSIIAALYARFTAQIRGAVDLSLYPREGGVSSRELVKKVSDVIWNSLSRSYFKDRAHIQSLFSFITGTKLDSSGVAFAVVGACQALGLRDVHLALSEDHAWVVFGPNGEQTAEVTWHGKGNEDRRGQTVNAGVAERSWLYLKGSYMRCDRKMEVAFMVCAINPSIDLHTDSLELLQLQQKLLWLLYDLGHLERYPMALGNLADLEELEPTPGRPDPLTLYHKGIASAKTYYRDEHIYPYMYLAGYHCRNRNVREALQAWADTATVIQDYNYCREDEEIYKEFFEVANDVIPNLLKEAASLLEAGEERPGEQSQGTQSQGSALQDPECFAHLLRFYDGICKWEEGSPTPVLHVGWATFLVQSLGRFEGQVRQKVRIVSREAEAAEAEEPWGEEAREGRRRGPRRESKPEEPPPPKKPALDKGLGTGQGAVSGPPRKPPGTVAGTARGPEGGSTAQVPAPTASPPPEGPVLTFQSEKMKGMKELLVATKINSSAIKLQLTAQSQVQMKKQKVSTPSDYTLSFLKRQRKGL
- ASSAY SUMMARY: biochemical
QUANTITY NAME: IC50

State the recorded IC50 for this entry: Cc1c(CN2CCC(Nc3ncnc4sc(CC(F)(F)F)cc34)CC2)ccc2c1cc(C#N)n2CCN1CCNC(C(N)=O)C1 (stereo not drawn)
< 100 nM

May I ask what IC50 has been recorded for FC(F)(F)Cc1cc2c(NCC3CCN(Cc4ccccc4)CC3)ncnc2s1 ?
500 to 2000 nM

Requested field: IC50. Item: Cc1ncc(Cn2c(C#N)cc3c(C)c(CN4CCC(Nc5ncnc6sc(CC(F)(F)F)cc56)CC4)ccc32)s1
< 100 nM

What IC50 value was documented for this molecule, NC(=O)c1cc2cc(CN3CCC(Nc4ncnc5sc(CC(F)(F)F)cc45)CC3)ccc2[nH]1 ?
100 to 500 nM

Recorded IC50 of Cc1c(CN2CCC(Nc3ncnc4sc(CC(F)(F)F)cc34)CC2)ccc2c1cc(C#N)n2CCN1CCNC(C(F)(F)F)C1 (stereo not drawn) , please.
< 100 nM

Fill blank: measured IC50 of the molecule Cc1cc(CN2CCC(Nc3ncnc4sc(CC(F)(F)F)cc34)CC2)cc2cc(C#N)[nH]c12 is ____.
100 to 500 nM

Recorded IC50 of N#Cc1cc2cc(CN3CCC(Nc4ncnc5sc(CC(F)(F)F)cc45)CC3)cc(F)c2[nH]1 , please.
100 to 500 nM

Query: IC50; subject: FC(F)(F)Cc1cc2c(N3CCN(c4nnc(CCc5ccccc5)s4)CC3)ncnc2s1
500 to 2000 nM

# lookup: IC50 of OCc1cnc2sc(CC(F)(F)F)cc2c1NC1CCN(Cc2ccccc2)CC1
< 100 nM

# get_value(readout='IC50', item= CCCCN(CC1CCN(Cc2ccc(C#N)cc2)CC1)c1ncnc2sc(CC(F)(F)F)cc12 )
500 to 2000 nM
